test system: KRas G12C mutant; experiment: Ras GTP binding domain inhibition assay (Cy3-GTP/Cy5-GTP competition); set-up: species or system human; conditions: 20 μM; without SOS
Measured Property: KRas G12C mutant: % inh.

Compound	Measured Property	Value
COCC(C)Nc1nc(-c2nccn2C)nc2sc(-c3cccc(OC)c3)c(-c3cscn3)c12 (centres unmarked) [drawing 855]	KRas G12C mutant: % inh.	B (26-50% inhibition)
COC1CCN(c2nc(-c3nccn3C)nc3sc(Br)c(-c4ccccc4)c23)C1 (centres unmarked) [drawing 822]	KRas G12C mutant: % inh.	B (26-50% inhibition)
COCCN(C)C(=O)c1nc(-c2ccccn2)nc(O)c1O [drawing 810]	KRas G12C mutant: % inh.	C (51-75% inhibition)
COC1CCN(c2nc(-c3nccn3C)nc3sc(-c4cnc(C5CC5)o4)c(-c4ccccc4)c23)C1.Cl (centres unmarked)	KRas G12C mutant: % inh.	C (51-75% inhibition)
COCC1CN(c2nc(-c3nccn3C)nc3sc(-c4cccc(OC)c4F)c(-c4ccc(OC)cc4)c23)C1 [drawing 805]	KRas G12C mutant: % inh.	B (26-50% inhibition)
Cc1cn(C)c(-c2nc(O)c3scc(-c4ccccn4)c3n2)n1 [drawing 807]	KRas G12C mutant: % inh.	C (51-75% inhibition)
